B1: Flag-tagged wild-type A2 domain of coagulation factor VIII (pED-Flag-A2) [human] / calreticulin [not stated (endogenous in COS-1 or HEK293T cells)] (parent)
chain 1: KTWVHYIAAEEEDWDYAPLVLAPDDRSYKSQYLNNGPQRIGRKYKKVRFMAYTDETFKTREAIQHESGILGPLLYGEVGDTLLIIFKNQASRPYNIYPHGITDVRPLYSRRLPKGVKHLKDFPILPGEIFKYKWTVTVEDGPTKSDPRCLTRYYSSFVNMERDLASGLIGPLLICYKESVDQRGNQIMSDKRNVILFSVFDENRSWYLTENIQRFLPNPAGVQLEDPEFQASNIMHSINGYVFDSLQLSVCLHEVAYWYILSIGAQTDFLSVFFSGYTFKHKMVYEDTLTLFPFSGETVFMSMENPGLWILGCHNSDFRNRGMTALLKVSSC
chain 2: EPAVYFKEQFLDGDGWTSRWIESKHKSDFGKFVLSSGKFYGDEEKDKGLQTSQDARFYALSASFEPFSNKGQTLVVQFTVKHEQNIDCGGGYVKLFPNSLDQTDMHGDSEYNIMFGPDICGPGTKKVHVIFNYKGKNVLINKDIRCKDDEFTHLYTLIVRPDNTYEVKIDNSQVESGSLEDDWDFLPPKKIKDPDASKPEDWDERAKIDDPTDSKPEDWDKPEHIPDPDAKKPEDWDEEMDGEWEPPVIQNPEYKGEWKPRQIDNPDYKGTWIHPEIDNPEYSPDPSIYAYDNFGVLGLDLWQVKSGTIFDNFLITNDEAYAEEFGNETWGVTKAAEKQMKDKQDEEQRLKEEEEDKKRKEEEEAEDKEDDEDKDEDEEDEEDKEEDEEEDVPGQAKDEL

# Variants of: B1
# experiment: co-immunoprecipitation (anti-Flag IP, immunoblot densitometry)
# test-settings: with calreticulin [not stated (endogenous in COS-1 or HEK293T cells)]; 36 h after transfection; n = 3; parent: 1; read off a plot
measured-metric: ratio to parent

| mutation-annotation | measured-metric | quantitative-readout |
| --- | --- | --- |
| chain 1 N203D | ratio to parent | 0.92 |
| chain 1 D201H | ratio to parent | 2.2 |
| chain 1 D201V | ratio to parent | 1.1 |
| chain 1 S205T | ratio to parent | 2.3 |
